system: UACC-62 melanoma; experiment: NCI tumour cell line growth inhibition, 48 h
Recorded TGI, one value per entry.
MEASURE: TGI

1. CCCCCCCC(CC(=O)NC(CO)C(=O)NC(CO)CC(C)C)OC(=O)CC(CCCCCCC)OC(=O)CC(CCCCCCC)OC1OC(C)C(O)C(OC2OC(C)C(O)C(OC(C)=O)C2O)C1O (centres undefined) ... 25.8 µM
2. COC(=O)c1cc(Br)c(Br)n1C ... > 100 µM
3. OCC1OC(NC(=S)NCCC(F)(F)C(F)(F)C(F)(F)C(F)(F)C(F)(F)C(F)(F)F)C(O)C(O)C1O (centres undefined) ... > 100 µM
4. CN/N=C(/CCN1CCCC1)CC(c1ccccc1)c1c(O)c2ccccc2oc1=O (centres undefined) ... > 100 µM

====

tested on: UACC-62 melanoma; test: NCI tumour cell line growth inhibition, 48 h
Respond with Satisfied for TGI values of 20 µM and above, Not satisfied for values below.

1. N=c1c2ccccc2nc2oc3cc([N+](=O)[O-])ccc3n12 ... Satisfied
2. CN(C)CCn1c(=O)c2ccc(NCCNCCO)c3c(=O)c4ccccc4n(c1=O)c23 ... Not satisfied
3. CCCCCCCCCCCCCC1CCC(CC)N1 (stereo not given) ... Not satisfied
4. O=C1CSC(c2ccccc2)N1c1nc2cc3sc(N4C(=O)CSC4c4ccccc4)nc3cc2s1 (stereo not given) ... Satisfied
5. CC1=NN(c2cccc(S(=O)(=O)O)c2)C2(C1)C(Cl)C(=O)N2c1nc2ccccc2s1 (stereo not given) ... Not satisfied
6. Cc1sc2nc(N(C)C)oc(=O)c2c1C ... Satisfied
7. CC(C)CCCC(C)[C@H]1CC[C@H]2n3c(nnc3-c3ccccc3)CCC[C@]12C (stereo not given in full) ... Satisfied
8. CC(C)=CCc1c(O)cc(O)c2c1OC(c1ccc(O)cc1)C(O)C2=O (stereo not given) ... Satisfied
9. CC1CN1CC(O)C(O)CN1CC1C (stereo not given) ... Satisfied
10. COc1cc(C2=NN(C(C)=O)C(c3ccc(OC(C)=O)cc3OC(C)=O)O2)c(OC(C)=O)c2ccccc12 (stereo not given) ... Not satisfied

====

system: HCT-116 colon; experiment: NCI tumour cell line growth inhibition, 48 h
TGI of 20 µM or higher: Y. Under 20 µM: N.

1) CCSc1nnc(Sc2c3ccccc3nc3ccccc23)s1 ... Y
2) O=C1CSC(c2ccccc2)N1c1nc2cc3sc(N4C(=O)CSC4c4ccccc4)nc3cc2s1 (stereo not given) ... Y
3) CN(C)CC/C(=N\Nc1c(Cl)cccc1Cl)c1ccccc1 ... Y
4) OCC1OC(NC(=S)NCCC(F)(F)C(F)(F)C(F)(F)C(F)(F)C(F)(F)C(F)(F)F)C(O)C(O)C1O (stereo not given) ... Y
5) C1=C(CC2=C[P+](c3ccccc3)(c3ccccc3)C=C(c3ccccc3)O2)OC(c2ccccc2)=C[P+]1(c1ccccc1)c1ccccc1 ... N
6) C[C@]12CC[C@H]3[C@@H](CCC4=CC(=O)CC[C@@H]43)[C@@H]1CC[C@]2(O)C(N)=O ... Y
7) CC1=C(C)CC2(CCCCC2=O)S(=O)C1 (stereo not given) ... Y
8) CCOC(=O)Sc1ncnc2nc[nH]c12 ... Y
9) O=C1CC(Br)c2c(Br)sc(Br)c21 (stereo not given) ... Y
10) C[N+](C)(C)CC1CCCC(C[N+](C)(C)C)C1=O (stereo not given) ... N
11) CC(=O)OC1CC(O)C23COC(O)C1(C)C2CC(O)C1(C)C3C(=O)C(O)C2(C)C(c3ccoc3)CC3OC321 (stereo not given) ... Y
12) CC(C)N(C(=O)C12CC3CC(CC(C3)C1)C2)C(C)C ... Y
13) Cc1cn2c(/C=C3/C(=O)N(C)c4ccccc43)c(C)nc2s1 ... Y
14) Cc1nc2ccccc2c(=O)n1NC(=O)c1ccccn1 ... Y
15) COc1cc(C(=O)NNC(=O)c2cc(Br)ccc2NC(=O)c2cccs2)cc(OC)c1OC ... Y
16) COc1ccc(NC(=S)Nc2cc(C)ccn2)cc1 ... Y
17) O=C1c2ccccc2-c2c1c1ccccc1c(=O)n2Cc1ccccc1 ... Y
18) CC(=O)c1c(-c2ccc(Cl)cc2)c(-c2ccc(Cl)cc2)n[nH]c1=O ... Y
19) O=C(c1cccc(O)c1O)c1cn(Cc2ccc(F)cc2)c2cccc(O)c12 ... N
20) Cc1ccc(/C(=C/C=C(C#N)C#N)Sc2ccc(Cl)cc2)cc1 ... N

====

system: U251 CNS; experiment: NCI tumour cell line growth inhibition, 48 h
MEASURE: TGI

1) COc1cc[nH]c1/C=C1\C(=O)Nc2ccccc21 ... > 25 µM
2) O=C(O)CN(c1ccccc1)S(=O)(=O)c1ccccc1[N+](=O)[O-] ... > 100 µM
3) CN1CCCC2C(c3ccccc3)C(C3=NCCCC3)C(c3ccccc3)CC21 (stereo not given) ... > 100 µM
4) C=CCN1C(=O)/C(=C/c2ccc(Cl)cc2)N=C1SC/C=C/C ... 84.8 µM
5) CN(C)CC/C(=N\Nc1c(Cl)cccc1Cl)c1ccccc1 ... 31.3 µM
6) CCOC(=O)C1(CO)CSCCSC1 ... > 100 µM
7) O=C(N/N=C/c1cccc(O)c1O)c1ccccc1 ... > 100 µM
8) CC1=C2C(=O)O[C@@H](c3ccoc3)[C@]2(C)CCC1 ... > 100 µM
9) COc1cccc(Nc2nc(C)c([N+](=O)[O-])c(Nc3cccc(OC)c3)n2)c1 ... > 100 µM
10) CC(=O)O[C@H]1C(=O)[C@@]2(C)[C@H]([C@H](OC(=O)c3ccccc3)[C@]3(O)C[C@H](OC(=O)[C@H](O)[C@@H](NC(=O)c4ccc(N)cc4)c4ccccc4)C(C)=C1C3(C)C)[C@]1(OC(C)=O)CO[C@@H]1C[C@@H]2O ... > 50 µM

====

tested on: LXFL 529 NSCLC; assay: NCI tumour cell line growth inhibition, 48 h
MEASURE: TGI

1) CCC1CN2CCc3cc(OC)c(OC)cc3C2CC1CC1c2cc(OC)c(OC)cc2CCN1C(=O)C(N)Cc1ccccc1 (stereo unspecified) ... 11.6 µM
2) COc1c2c(cc3nc4ccccc4nc13)CCC(C(C)(C)O)C2 (stereo unspecified) ... > 100 µM
3) CCOC(=O)CN=c1nc(SC)sc2c(C(=O)OCC)nc(Sc3ccccc3)n12 ... > 100 µM
4) COC(=O)C1=NC(=S)NC(c2ccccc2)C1c1nc2ccccc2s1 (stereo unspecified) ... > 100 µM
5) CC1(n2nc(-c3ccccc3)n(-c3ccccc3)c2=O)CSC1 ... > 100 µM
6) COC(=O)c1cc(Br)c(Br)n1C ... > 100 µM

====

system: KM12 colon; experiment: NCI tumour cell line growth inhibition, 48 h; in the data active = GI50 below about 0.43 µM; inactive = the rest
Outcome codes: TRUE (active), FALSE (inactive)

1) CC(=O)OC1Oc2ccccc2-c2oc(=O)c(-c3cc4ccc(N(C)C)cc4oc3=O)cc21 (stereo unspecified) ... FALSE
2) CCN1C(=O)CNc2ncc(-c3ccc(-c4ncn[nH]4)nc3C)nc21 ... TRUE
3) CCN(CC)c1sc(N(CC)CC)c2c1SSSSS2 ... FALSE
4) CCOC(=O)c1c(CN2CCN(c3ccccc3)CC2)n(-c2ccccc2)c2cc(Br)c(O)cc12 ... FALSE
5) Clc1nc(Cl)c2ncn(Cc3cccc(COc4cccc(OCc5cccc(Cn6cnc7c(Cl)nc(Cl)nc76)c5)c4)c3)c2n1 ... FALSE
6) COC(=O)Nc1nc2ccc(Oc3ccc(NC(=O)Nc4ccccc4)cc3)cc2[nH]1 ... TRUE
7) CCN(CC)CCCC(C)Nc1c(C)cnc2cc(Cl)c(C)cc12 (stereo unspecified) ... FALSE
8) CC1CN1CC(O)C(O)CN1CC1C (stereo unspecified) ... FALSE
9) COc1cc(OC)c(/C=C/C(=O)c2c(OC)cccc2OC)c(OC)c1 ... FALSE
10) COc1ccc(C(=O)COc2cccc(/C=C3\COc4ccc5ccccc5c4C3=O)c2)cc1 ... FALSE
11) CCN(CC)CCN1CC(O)=C(c2nc(-c3ccc(Cl)cc3)cs2)C1=N ... FALSE
12) COc1cc[nH]c1/C=C1\C(=O)Nc2ccccc21 ... FALSE
13) Cc1cc(C)c(C(=O)CC(=O)c2cccnc2)c(C)c1 ... FALSE
14) COc1ccc(OC)c(/C=C/C(=O)N/N=C/c2ccc(Cl)cc2)c1 ... TRUE
15) CCCCN=C(N)c1ccc(OCCSCCOc2ccc(C(N)=NCCCC)cc2)cc1 ... FALSE
16) COc1cc(C2=NN(C(C)=O)C(c3ccc(OC(C)=O)cc3OC(C)=O)O2)c(OC(C)=O)c2ccccc12 (stereo unspecified) ... FALSE
